Molecular target: Mitogen-activated protein kinase 14 (Homo sapiens)
Sequence (Q16539 whole entry): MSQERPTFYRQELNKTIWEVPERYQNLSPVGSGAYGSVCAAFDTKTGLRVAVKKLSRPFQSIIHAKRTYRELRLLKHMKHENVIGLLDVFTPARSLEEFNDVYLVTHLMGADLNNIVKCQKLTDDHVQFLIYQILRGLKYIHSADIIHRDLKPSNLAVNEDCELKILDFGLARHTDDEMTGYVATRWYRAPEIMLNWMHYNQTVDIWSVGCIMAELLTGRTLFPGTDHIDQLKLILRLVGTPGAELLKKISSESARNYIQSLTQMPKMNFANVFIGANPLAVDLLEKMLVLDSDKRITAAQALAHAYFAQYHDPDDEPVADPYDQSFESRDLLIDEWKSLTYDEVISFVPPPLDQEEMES
Test: Inhibition of p38alpha

query.smiles | IC50
CN(C)[C@H]1CCCN(c2ccc(C(F)(F)F)cc2NC(=O)c2cc(C#Cc3cnc(N)nc3)ccc2F)C1 | > 8.3 µM

====

Experiment: AUC (0-infinity) in Sprague-Dawley rat at 5 mg/kg, po
Format: ADME, organism-based
Parameters: time infinity, dose 5 mg/kg, route oral
Settings: plasma

query.smiles | AUC(0-inf) / ng·h/mL
Nc1ncc(C#Cc2ccc(F)c(C(=O)Nc3cc(C(F)(F)F)ccc3N3CCC[C@H](N)C3)c2)cn1 | 9300
CN(C)[C@H]1CCCN(c2ccc(C(F)(F)F)cc2NC(=O)c2cc(C#Cc3cnc(N)nc3)ccc2F)C1 | 800
CN[C@H]1CCCN(c2ccc(C(F)(F)F)cc2NC(=O)c2cc(C#Cc3cnc(N)nc3)ccc2F)C1 | 18600

====

Target: Tyrosine-protein kinase Fes/Fps (Homo sapiens)
pIC50: −log10 of the molar value.
measured.attribute: pIC50

query.smiles | measured.target | val
CN(C)[C@H]1CCCN(c2ccc(C(F)(F)F)cc2NC(=O)c2cc(C#Cc3cnc(N)nc3)ccc2F)C1 | Tyrosine-protein kinase Fes/Fps (Homo sapiens) | 6.04

====

Target: Tyrosine-protein kinase ITK/TSK (Homo sapiens)
Sequence (Q08881 whole entry): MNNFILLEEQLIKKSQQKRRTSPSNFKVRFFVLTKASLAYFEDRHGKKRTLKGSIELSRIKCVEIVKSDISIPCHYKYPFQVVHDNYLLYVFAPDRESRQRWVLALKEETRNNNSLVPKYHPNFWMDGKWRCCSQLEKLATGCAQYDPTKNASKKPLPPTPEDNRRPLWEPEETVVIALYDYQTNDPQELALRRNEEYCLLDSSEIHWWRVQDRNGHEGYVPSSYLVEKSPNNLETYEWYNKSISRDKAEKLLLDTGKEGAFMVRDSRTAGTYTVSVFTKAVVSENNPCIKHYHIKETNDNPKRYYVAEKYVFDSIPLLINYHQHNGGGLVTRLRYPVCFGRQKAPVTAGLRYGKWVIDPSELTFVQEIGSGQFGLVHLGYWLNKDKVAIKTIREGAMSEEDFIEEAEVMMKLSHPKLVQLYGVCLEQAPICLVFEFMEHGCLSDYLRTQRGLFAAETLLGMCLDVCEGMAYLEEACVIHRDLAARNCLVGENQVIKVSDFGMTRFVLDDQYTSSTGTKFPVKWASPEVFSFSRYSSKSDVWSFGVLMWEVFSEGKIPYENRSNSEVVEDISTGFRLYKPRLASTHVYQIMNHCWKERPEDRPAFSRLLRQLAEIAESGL

query.smiles | IC50
CN(C)[C@H]1CCCN(c2ccc(C(F)(F)F)cc2NC(=O)c2cc(C#Cc3cnc(N)nc3)ccc2F)C1 | > 5 µM

====

Assay: Clearance in Sprague-Dawley rat at 2 mg/kg, iv
Format: ADME, organism-based
Parameters: dose 2 mg/kg, route intravenous
Settings: in vivo
Overview of recorded clearance for various compounds
measured.attribute: clearance (mL/min/kg)

query.smiles | val
CN[C@H]1CCCN(c2ccc(C(F)(F)F)cc2NC(=O)c2cc(C#Cc3cnc(N)nc3)ccc2F)C1 | 2.5
Nc1ncc(C#Cc2ccc(F)c(C(=O)Nc3cc(C(F)(F)F)ccc3N3CCC[C@H](N)C3)c2)cn1 | 5.33
CN(C)[C@H]1CCCN(c2ccc(C(F)(F)F)cc2NC(=O)c2cc(C#Cc3cnc(N)nc3)ccc2F)C1 | 40

====

Molecular target: Tyrosine-protein kinase Fgr (Homo sapiens)
pIC50: −log10 of the molar value.

query.smiles | pIC50
CN(C)[C@H]1CCCN(c2ccc(C(F)(F)F)cc2NC(=O)c2cc(C#Cc3cnc(N)nc3)ccc2F)C1 | 7.37

====

Molecular target: Hepatocyte growth factor receptor (Homo sapiens)
Sequence (P08581 whole entry): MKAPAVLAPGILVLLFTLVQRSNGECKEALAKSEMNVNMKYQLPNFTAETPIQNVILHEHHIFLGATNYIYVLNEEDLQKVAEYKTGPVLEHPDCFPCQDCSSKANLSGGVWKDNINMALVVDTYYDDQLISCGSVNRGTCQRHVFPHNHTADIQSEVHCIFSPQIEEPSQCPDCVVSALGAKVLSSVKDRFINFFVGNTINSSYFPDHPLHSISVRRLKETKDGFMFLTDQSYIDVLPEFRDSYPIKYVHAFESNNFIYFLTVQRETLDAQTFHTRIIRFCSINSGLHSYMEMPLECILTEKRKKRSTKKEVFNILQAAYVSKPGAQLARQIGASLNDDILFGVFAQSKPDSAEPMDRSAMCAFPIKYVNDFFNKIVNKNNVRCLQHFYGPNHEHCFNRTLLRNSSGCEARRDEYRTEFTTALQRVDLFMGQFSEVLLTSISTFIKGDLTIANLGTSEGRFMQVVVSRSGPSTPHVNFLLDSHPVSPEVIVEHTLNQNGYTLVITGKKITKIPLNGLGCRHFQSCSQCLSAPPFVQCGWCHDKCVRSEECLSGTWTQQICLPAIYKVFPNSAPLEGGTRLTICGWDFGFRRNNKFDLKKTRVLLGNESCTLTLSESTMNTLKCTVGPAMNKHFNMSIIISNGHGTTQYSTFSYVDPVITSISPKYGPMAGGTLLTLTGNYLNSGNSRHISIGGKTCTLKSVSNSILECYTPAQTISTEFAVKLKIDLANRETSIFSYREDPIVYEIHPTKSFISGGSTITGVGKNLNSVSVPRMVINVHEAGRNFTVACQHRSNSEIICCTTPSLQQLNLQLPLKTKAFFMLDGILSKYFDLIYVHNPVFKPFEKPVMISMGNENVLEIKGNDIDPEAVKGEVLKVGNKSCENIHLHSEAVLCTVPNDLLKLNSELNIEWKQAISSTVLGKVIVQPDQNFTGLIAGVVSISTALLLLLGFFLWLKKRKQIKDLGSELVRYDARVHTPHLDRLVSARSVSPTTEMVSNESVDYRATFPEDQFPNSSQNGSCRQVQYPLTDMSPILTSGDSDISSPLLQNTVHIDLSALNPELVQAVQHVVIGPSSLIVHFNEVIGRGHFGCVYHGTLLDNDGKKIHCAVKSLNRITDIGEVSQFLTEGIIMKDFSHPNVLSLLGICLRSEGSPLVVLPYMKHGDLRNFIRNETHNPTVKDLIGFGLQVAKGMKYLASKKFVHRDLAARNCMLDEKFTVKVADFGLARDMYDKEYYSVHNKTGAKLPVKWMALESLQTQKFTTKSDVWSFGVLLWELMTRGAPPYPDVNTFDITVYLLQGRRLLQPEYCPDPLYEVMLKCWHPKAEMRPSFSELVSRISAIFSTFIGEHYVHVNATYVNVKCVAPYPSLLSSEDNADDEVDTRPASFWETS
pIC50: −log10 of the molar value.

query.smiles | pIC50
CN(C)[C@H]1CCCN(c2ccc(C(F)(F)F)cc2NC(=O)c2cc(C#Cc3cnc(N)nc3)ccc2F)C1 | < 5.17

====

Biological target: Ephrin type-B receptor 4 (Homo sapiens)
Sequence (P54760 whole entry): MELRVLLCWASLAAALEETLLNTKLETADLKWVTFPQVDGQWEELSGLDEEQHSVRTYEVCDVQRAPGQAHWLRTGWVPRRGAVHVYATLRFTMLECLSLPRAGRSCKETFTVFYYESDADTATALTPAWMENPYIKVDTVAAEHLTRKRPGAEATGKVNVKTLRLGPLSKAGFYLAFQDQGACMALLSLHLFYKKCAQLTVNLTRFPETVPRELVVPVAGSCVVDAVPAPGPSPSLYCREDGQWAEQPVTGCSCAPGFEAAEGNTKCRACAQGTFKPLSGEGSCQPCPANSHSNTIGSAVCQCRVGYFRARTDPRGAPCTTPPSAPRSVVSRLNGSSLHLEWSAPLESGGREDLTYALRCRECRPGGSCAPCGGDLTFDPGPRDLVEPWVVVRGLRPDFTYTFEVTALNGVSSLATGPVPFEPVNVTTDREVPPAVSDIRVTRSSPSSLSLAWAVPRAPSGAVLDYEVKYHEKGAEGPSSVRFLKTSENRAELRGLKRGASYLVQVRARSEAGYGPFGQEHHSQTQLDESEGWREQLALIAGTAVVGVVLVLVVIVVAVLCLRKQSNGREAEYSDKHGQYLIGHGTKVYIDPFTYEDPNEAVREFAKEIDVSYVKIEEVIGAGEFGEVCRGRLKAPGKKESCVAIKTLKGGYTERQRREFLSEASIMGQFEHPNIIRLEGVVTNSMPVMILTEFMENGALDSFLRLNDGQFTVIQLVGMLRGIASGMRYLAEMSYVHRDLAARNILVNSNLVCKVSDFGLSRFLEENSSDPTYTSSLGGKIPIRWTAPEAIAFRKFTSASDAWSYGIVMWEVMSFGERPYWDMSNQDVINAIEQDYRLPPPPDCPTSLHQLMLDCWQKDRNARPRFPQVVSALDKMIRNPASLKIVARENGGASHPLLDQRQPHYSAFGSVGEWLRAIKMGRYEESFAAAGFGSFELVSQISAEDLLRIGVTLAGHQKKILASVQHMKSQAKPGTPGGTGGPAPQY
pIC50: −log10 of the molar value.

query.smiles | pIC50
CN(C)[C@H]1CCCN(c2ccc(C(F)(F)F)cc2NC(=O)c2cc(C#Cc3cnc(N)nc3)ccc2F)C1 | 6.54

====

Biological target: High affinity nerve growth factor receptor (Homo sapiens)
Sequence (P04629 whole entry): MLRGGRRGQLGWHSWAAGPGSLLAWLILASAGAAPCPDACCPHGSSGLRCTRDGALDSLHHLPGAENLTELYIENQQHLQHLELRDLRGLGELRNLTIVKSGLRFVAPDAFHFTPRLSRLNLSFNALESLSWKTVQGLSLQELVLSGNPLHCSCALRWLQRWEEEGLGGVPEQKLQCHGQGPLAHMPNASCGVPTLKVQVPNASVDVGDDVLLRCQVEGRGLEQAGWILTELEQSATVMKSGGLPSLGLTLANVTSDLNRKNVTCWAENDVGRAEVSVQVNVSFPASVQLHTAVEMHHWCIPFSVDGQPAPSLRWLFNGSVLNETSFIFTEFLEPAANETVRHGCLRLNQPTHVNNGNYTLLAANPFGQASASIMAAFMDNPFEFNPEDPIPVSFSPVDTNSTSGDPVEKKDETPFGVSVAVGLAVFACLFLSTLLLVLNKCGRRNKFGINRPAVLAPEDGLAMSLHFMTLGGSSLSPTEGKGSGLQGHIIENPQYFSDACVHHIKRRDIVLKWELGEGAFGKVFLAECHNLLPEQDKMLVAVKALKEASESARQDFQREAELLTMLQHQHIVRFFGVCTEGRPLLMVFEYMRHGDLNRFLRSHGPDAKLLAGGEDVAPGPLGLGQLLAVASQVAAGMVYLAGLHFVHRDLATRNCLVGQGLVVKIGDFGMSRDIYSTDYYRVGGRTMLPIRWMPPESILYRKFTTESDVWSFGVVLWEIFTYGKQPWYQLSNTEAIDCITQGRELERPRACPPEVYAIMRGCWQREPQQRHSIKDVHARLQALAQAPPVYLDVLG
pIC50: −log10 of the molar value.
measured.attribute: pIC50

query.smiles | val
CN(C)[C@H]1CCCN(c2ccc(C(F)(F)F)cc2NC(=O)c2cc(C#Cc3cnc(N)nc3)ccc2F)C1 | 7.74

====

Target: Vascular endothelial growth factor receptor 2 (Homo sapiens, UniProt P35968)
Sequence (P35968 whole entry): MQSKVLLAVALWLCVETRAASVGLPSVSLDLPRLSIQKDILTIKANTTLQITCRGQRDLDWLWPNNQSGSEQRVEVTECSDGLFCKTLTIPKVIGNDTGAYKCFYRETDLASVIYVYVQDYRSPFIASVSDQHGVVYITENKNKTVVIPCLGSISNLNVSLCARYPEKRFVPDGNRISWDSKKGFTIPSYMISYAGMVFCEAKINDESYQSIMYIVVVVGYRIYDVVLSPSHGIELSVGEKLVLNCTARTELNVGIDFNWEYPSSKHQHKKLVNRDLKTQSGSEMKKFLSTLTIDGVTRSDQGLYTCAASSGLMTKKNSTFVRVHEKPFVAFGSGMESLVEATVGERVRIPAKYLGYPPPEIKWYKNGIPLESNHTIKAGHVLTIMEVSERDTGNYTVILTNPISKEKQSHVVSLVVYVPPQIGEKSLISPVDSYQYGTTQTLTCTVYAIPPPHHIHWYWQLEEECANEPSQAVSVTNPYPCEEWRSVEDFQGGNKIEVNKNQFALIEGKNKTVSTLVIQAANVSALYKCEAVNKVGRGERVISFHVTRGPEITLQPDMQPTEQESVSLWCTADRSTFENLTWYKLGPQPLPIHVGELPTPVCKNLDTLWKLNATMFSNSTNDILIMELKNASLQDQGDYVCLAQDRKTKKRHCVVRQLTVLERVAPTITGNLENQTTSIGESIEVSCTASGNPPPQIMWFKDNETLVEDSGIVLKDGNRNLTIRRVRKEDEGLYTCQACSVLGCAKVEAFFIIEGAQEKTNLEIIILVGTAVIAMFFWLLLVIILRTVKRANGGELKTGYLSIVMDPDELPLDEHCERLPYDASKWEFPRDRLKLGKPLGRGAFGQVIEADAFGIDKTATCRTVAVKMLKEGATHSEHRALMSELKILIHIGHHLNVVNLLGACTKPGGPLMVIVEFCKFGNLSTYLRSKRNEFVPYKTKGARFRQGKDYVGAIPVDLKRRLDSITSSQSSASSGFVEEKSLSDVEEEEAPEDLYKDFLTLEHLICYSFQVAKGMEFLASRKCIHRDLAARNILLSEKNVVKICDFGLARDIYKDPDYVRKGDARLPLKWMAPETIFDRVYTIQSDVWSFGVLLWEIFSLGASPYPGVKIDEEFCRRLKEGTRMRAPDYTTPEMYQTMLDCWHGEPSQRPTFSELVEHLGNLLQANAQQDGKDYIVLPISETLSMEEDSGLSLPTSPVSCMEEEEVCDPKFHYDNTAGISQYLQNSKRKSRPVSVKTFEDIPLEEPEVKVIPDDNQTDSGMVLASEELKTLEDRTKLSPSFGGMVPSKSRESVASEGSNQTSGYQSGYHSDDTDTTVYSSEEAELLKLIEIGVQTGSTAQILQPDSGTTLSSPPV
pIC50: −log10 of the molar value.
Entries and their pIC50
measured.attribute: pIC50

query.smiles | measured.attribute | val
Cc1ccc(C(=O)Nc2cc(C(F)(F)F)ccc2N2CCCCC2)cc1C#Cc1cnc(N)nc1 | pIC50 | < 6.00
Cc1ccc(C(=O)Nc2cccc(C(F)(F)F)c2)cc1C#Cc1cnc2[nH]cnc2c1 | pIC50 | > 9.00

====

# reported bioavailability; entries follow
Experiment: Oral bioavailability in Sprague-Dawley rat at 5 mg/kg, po
Type: ADME, organism-based
Settings: in vivo

query.smiles | unit.annotation | bioavailability
Nc1ncc(C#Cc2ccc(F)c(C(=O)Nc3cc(C(F)(F)F)ccc3N3CCC[C@H](N)C3)c2)cn1 | % | 51
CN(C)[C@H]1CCCN(c2ccc(C(F)(F)F)cc2NC(=O)c2cc(C#Cc3cnc(N)nc3)ccc2F)C1 | % | 39
CN[C@H]1CCCN(c2ccc(C(F)(F)F)cc2NC(=O)c2cc(C#Cc3cnc(N)nc3)ccc2F)C1 | % | 54

====

Test: Plasma protein binding in CD1 NU/NU mouse
Type: ADME, cell-free
Conditions: read-out: PPB (converted)
measured.attribute: fraction unbound

query.smiles | val
CN(C)[C@H]1CCCN(c2ccc(C(F)(F)F)cc2NC(=O)c2cc(C#Cc3cnc(N)nc3)ccc2F)C1 | 0.021

====

Assay: Half life in Sprague-Dawley rat at 2 mg/kg, iv
Format: ADME, organism-based
Design: dose 2 mg/kg, route intravenous
Conditions: in vivo
Below is a list of entries, each paired with its recorded half-life value.

query.smiles | half-life
CN[C@H]1CCCN(c2ccc(C(F)(F)F)cc2NC(=O)c2cc(C#Cc3cnc(N)nc3)ccc2F)C1 | 10.6 h
CN(C)[C@H]1CCCN(c2ccc(C(F)(F)F)cc2NC(=O)c2cc(C#Cc3cnc(N)nc3)ccc2F)C1 | 7.9 h
Nc1ncc(C#Cc2ccc(F)c(C(=O)Nc3cc(C(F)(F)F)ccc3N3CCC[C@H](N)C3)c2)cn1 | 11.4 h

====

Measured IC50 on Angiopoietin-1 receptor (Homo sapiens, UniProt Q02763) follows.
Sequence (Q02763 whole entry): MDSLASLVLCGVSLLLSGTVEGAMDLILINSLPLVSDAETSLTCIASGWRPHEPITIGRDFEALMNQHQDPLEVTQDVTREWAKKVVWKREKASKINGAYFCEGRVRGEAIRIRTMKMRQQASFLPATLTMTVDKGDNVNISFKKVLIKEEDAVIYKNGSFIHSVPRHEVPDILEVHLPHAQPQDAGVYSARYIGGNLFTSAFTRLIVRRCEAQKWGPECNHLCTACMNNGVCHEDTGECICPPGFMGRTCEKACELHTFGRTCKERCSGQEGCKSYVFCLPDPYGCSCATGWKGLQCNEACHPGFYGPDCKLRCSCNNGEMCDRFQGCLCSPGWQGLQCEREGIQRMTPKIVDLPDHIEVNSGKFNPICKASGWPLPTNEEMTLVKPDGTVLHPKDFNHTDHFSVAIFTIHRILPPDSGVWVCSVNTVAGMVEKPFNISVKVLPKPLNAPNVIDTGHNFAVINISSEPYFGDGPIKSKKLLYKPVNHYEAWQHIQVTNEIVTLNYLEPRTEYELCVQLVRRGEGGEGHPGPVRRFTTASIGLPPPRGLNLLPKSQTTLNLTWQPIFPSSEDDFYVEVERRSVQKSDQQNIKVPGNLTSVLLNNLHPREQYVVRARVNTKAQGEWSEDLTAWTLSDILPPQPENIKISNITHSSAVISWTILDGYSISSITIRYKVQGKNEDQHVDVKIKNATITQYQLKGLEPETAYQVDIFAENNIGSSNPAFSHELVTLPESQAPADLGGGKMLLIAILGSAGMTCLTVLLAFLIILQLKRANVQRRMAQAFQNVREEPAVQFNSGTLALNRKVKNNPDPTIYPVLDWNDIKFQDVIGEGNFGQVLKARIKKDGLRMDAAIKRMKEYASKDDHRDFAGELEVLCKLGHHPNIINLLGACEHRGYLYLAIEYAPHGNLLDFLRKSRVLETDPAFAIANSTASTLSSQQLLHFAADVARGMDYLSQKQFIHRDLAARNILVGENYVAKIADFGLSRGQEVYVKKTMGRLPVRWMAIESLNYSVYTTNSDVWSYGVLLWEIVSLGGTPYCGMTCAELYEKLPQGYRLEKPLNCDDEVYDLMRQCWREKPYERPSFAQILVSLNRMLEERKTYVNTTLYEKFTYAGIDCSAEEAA

query.smiles | IC50
Cc1ccc(C(=O)Nc2cccc(C(F)(F)F)c2)cc1-c1ccc2nc(N)ncc2c1 | 1 nM
CN(C)[C@H]1CCCN(c2ccc(C(F)(F)F)cc2NC(=O)c2cc(C#Cc3cnc(N)nc3)ccc2F)C1 | 5 nM
CN(C)[C@@H]1CCCN(c2ccc(C(F)(F)F)cc2NC(=O)c2cc(C#Cc3cnc(N)nc3)ccc2F)C1 | 44 nM

All figures here come from ChEMBL document CHEMBL1141381.
